Assay: Hepatic intrinsic clearance in Swiss CD-1 mouse hepatocytes measured per 10^6 cells at 1 uM measured upto 120 mins by LC-MS/MS analysis
Format: ADME, cell-based, Hepatocyte
Settings: read-out: CLH
readout_label: hepatocyte CLint at 1 µM

Q: Return hepatocyte CLint at 1 µM for the following compound: `COc1nn(C)cc1C(=O)N[S@@]1(=O)=NC(=O)c2ccc3c(c2)N(C[C@@H]2CCO[C@H]2[C@@H](OC)/C(F)=C/C[C@H](C)C1)C[C@@]1(CCCc2cc(Cl)ccc21)CO3`
A: < 1.24 µL/min/1e6 cells

----------
Quick record of pIC50 values for Cytochrome P450 2C8 (Homo sapiens).
# pIC50 is unitless: minus log10 of the molar concentration; print number only

{"compound": "COCCOCCn1nc(C)c2c1CSCc1cc(n(C)n1)CSc1cc(c3ccccc3c1)OCCCn1c(C(=O)O)c(C)c3c-2c(Cl)ccc31", "tgt": "Cytochrome P450 2C8 (Homo sapiens)", "pIC50": 6.30}

Q: Given Cc1c2c(nn1C)CSCc1cc(n(C)n1)CSc1cc(c3ccccc3c1)OCCCc1c(C(=O)O)n(C)c3c-2c(Cl)ccc13 [AZD-5991] , report its pIC50 on Cytochrome P450 2C8 (Homo sapiens).
Sequence (P10632 whole entry): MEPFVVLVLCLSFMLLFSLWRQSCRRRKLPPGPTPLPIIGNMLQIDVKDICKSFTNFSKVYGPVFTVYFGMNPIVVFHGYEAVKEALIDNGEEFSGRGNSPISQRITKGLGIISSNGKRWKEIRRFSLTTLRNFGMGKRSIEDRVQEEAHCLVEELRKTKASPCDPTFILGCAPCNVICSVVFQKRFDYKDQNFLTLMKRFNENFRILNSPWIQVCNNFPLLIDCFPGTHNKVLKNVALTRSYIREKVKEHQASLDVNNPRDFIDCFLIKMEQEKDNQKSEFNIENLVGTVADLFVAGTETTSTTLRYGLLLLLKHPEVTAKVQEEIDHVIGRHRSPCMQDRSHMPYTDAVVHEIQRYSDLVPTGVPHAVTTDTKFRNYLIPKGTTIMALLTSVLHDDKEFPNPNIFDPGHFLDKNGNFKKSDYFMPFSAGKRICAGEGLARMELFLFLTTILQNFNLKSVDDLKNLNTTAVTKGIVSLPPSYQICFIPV
A: 5.40

----------
Molecular target: CYP1A2 (Homo sapiens)
Sequence (P05177 whole entry): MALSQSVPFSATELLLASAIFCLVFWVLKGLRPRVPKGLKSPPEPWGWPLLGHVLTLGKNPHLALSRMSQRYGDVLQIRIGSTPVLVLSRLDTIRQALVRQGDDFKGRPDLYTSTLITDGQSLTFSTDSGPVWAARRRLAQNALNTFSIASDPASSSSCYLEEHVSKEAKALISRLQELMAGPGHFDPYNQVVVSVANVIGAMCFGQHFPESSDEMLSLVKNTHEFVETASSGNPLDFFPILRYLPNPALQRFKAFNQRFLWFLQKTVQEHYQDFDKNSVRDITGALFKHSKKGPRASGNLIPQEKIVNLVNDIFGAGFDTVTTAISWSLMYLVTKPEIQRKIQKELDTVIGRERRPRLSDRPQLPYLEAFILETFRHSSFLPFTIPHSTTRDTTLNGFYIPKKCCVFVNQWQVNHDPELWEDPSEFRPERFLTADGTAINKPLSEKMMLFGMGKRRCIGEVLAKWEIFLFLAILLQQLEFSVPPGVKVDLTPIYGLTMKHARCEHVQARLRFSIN
Test: Induction of human CYP1A2 assessed as fold change at 10 uM by CYP450 induction assay
Assay type: ADME
Conditions: read-out: FC
readout_label: fold induction at 10 µM
Lab note: jot down the number only; don't add units.

Q: Return fold induction at 10 µM for the following compound: `COc1nn(C)cc1C(=O)N[S@@]1(=O)=NC(=O)c2ccc3c(c2)N(C[C@@H]2CCO[C@H]2[C@@](CN2CCN4CCOC[C@@H]4C2)(OC)/C(F)=C/C[C@H](C)C1)C[C@@]1(CCCc2cc(Cl)ccc21)CO3`
A: 1.1

----------
Test: Thermodynamic (equilibrium) solubility of the compound measured after 3 days agitation in pH 2 buffer by LC-MS/MS analysis
Type: physicochemical
Conditions: time 3 day, read-out: Therm_solubility
readout_label: solubility thermodynamic at 72 h

Examples with their reported solubility thermodynamic at 72 h follow.
{"molecule": "COCCN(CCOC)C[C@]1(OC)/C(F)=C/C[C@H](C)[C@@H](C)S(=O)(=O)NC(=O)c2ccc3c(c2)N(C[C@@H]2CCO[C@H]21)C[C@@]1(CCCc2cc(Cl)ccc21)CO3", "result": "518 µM"}
{"molecule": "C[C@@H]1[C@@H](C)C/C=C(\\F)[C@@](O)(CN2CCN3CCCC[C@@H]3C2)[C@@H]2OCC[C@H]2CN2C[C@@]3(CCCc4cc(Cl)ccc43)COc3ccc(cc32)C(=O)NS1(=O)=O", "result": "95 µM"}
{"molecule": "CO[C@H]1/C(F)=C/C[C@H](C)[C@@H](C)S(=O)(=O)NC(=O)c2ccc3c(c2)N(C[C@@H]2CCO[C@H]21)C[C@@]1(CCCc2cc(Cl)ccc21)CO3", "result": "< 0.5 µM"}

Q: Return solubility thermodynamic at 72 h for the following molecule: `COc1nn(C)cc1C(=O)N[S@]1(=O)=NC(=O)c2ccc3c(c2)N(C[C@@H]2CCO[C@H]2[C@](CN2CCN4CCOC[C@@H]4C2)(OC)/C(F)=C/C[C@H](C)C1)C[C@@]1(CCCc2cc(Cl)ccc21)CO3`
A: 480 µM

Q: Return solubility thermodynamic at 72 h for the following molecule: `COc1nn(C)cc1C(=O)N[S@]1(=O)=NC(=O)c2ccc3c(c2)N(C[C@@H]2CCO[C@H]2[C@H](OC)/C(F)=C/C[C@H](C)C1)C[C@@]1(CCCc2cc(Cl)ccc21)CO3`
A: < 0.1 µM
